Every entry's value here was drawn from patent US20100093721A1.

target: human adenosine A2a receptor (Homo sapiens); assay: Adenosine A2a Receptor Functional Assay (A2AGAL2); details: CHO-K1 cells, cAMP inducible beta-galactosidase reporter, 15 nM NECA agonist challenge
metric: Ki (nM)

Check out these entries, answers already filled in.
| compound | readout-unit | Ki |
| --- | --- | --- |
| COc1ccccc1C(O)c1cc2c(N)nc(-c3ccc(C(F)F)o3)nc2s1 (stereo not shown) [Example 45] | nM | 4.37 |
| Nc1nc(-c2ccc(C(F)F)o2)nc2sc(Cc3ccccc3)cc12 [Example 43] | nM | 25.2 |
| Nc1nc(-c2cnccn2)nc2sc(Cc3ccccc3)cc12 [Example 32] | nM | 2.42 |
| Nc1nc(-c2ccc(C(F)F)o2)nc2sc(C(O)c3ccccc3)cc12 (stereo not shown) [Example 41] | nM | 11.3 |
| Cc1ccc(-c2nc(N)c3cc(CCc4ccccc4)sc3n2)o1 [Example 22] | nM | 189 |

[1] C=C(c1ccccc1)c1cc2c(N)nc(-c3nc(C)cs3)nc2s1 [Example 9]
[2] Nc1nc(-c2cnco2)nc2sc(Cc3ccccc3)cc12 [Example 19]
Of 1 and 2 , which shows the smaller Ki value? Indicate your choice by writing its label.
2

[A] Cc1ccc(-c2nc(N)c3cc(C(O)c4ccccc4)sc3n2)o1 (stereo not shown) [Example 2]
[B] Nc1nc(-c2ccc(C3CC3)o2)nc2sc(Cc3ccccc3)cc12 [Example 23]
[C] Cc1csc(-c2nc(N)c3cc(Cc4ccccc4)sc3n2)n1 [Example 14]
[D] Cc1ccc(-c2nc(N)c3cc(CCc4ccc(F)cc4)sc3n2)o1 [Example 29]
Write the entries in order, lowest recorded Ki first. I'd appreciate it if you listed the labels in the requested order.
A, C, D, B

----------
biological target: human A2a adenosine receptor (Homo sapiens); assay: Ligand Binding Assay for Adenosine A2a Receptor; conditions: HEK293 plasma membrane, radioligand [3H]CGS21680; read-out: A2A-B Ki
Sequence (P29274 whole entry): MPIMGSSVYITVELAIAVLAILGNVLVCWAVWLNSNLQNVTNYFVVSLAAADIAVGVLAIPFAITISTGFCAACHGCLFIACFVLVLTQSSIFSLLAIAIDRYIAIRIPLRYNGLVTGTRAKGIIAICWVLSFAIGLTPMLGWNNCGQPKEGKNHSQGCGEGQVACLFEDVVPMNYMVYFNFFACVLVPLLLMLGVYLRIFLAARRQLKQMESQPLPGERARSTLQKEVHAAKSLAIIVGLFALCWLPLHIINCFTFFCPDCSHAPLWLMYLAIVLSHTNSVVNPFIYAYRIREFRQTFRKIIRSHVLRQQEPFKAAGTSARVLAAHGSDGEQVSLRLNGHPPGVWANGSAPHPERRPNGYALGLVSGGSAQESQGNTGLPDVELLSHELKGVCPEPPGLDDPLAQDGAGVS
metric: Ki (nM)

| compound | Ki / nM |
| --- | --- |
| Cc1ccc(-c2nc(N)c3cc(Cc4ccccc4)sc3n2)o1 [Example 1] | 11.9 |
| Cc1ccc(-c2nc(N)c3cc(CCc4ccc(F)cc4)sc3n2)o1 [Example 29] | 6.61 |
| Cc1ccc(-c2nc(N)c3cc(C(=O)c4ccccc4CN4CCOCC4)sc3n2)o1 [Example 7] | 328 |
| Cc1ccc(-c2nc(N)c3cc(C(=O)c4cccc(CN5CCOCC5)c4)sc3n2)o1 [Example 5] | 100 |
| Cc1csc(-c2nc(N)c3cc(Cc4ccccc4)sc3n2)n1 [Example 14] | 46.3 |
| COc1ccccc1Cc1cc2c(N)nc(-c3ccc(C)o3)nc2s1 [Example 12] | 51 |

[I] Cc1ccc(-c2nc(N)c3cc(/C=C/c4ccccc4)sc3n2)o1 [Example 33]
[II] Cc1ccc(-c2nc(N)c3cc(/C=C/c4ccc(F)cc4)sc3n2)o1 [Example 30]
Of I and II , which shows the smaller Ki value? Indicate your choice by writing its label.
I
(I: 26 nM, II: 173 nM)

----------
target: human adenosine A2a receptor (Homo sapiens); test: Adenosine A2a Receptor Functional Assay (A2AGAL2); details: CHO-K1 cells, cAMP inducible beta-galactosidase reporter, 15 nM NECA agonist challenge
metric: Ki (nM)

| compound | readout-unit | Ki |
| --- | --- | --- |
| CCc1ccc(-c2nc(N)c3cc(Cc4ccccc4)sc3n2)o1 [Example 8] | nM | 48.8 |
| Cc1csc(-c2nc(N)c3cc(C4(c5ccccc5)CC4)sc3n2)n1 [Example 10] | nM | 107 |
| N#Cc1cccc(-c2nc(N)c3cc(Cc4ccccc4)sc3n2)n1 [Example 24] | nM | 26.4 |
| COc1ccccc1Cc1cc2c(N)nc(-c3ccc(C)o3)nc2s1 [Example 12] | nM | 10.1 |
| COc1ccccc1C(O)c1cc2c(N)nc(-c3ccc(C)o3)nc2s1 (centres unmarked) [Example 11] | nM | 1.98 |
| Cc1ccc(-c2nc(N)c3cc(Cc4ccccc4)sc3n2)o1 [Example 1] | nM | 11 |
| N#Cc1ccc(-c2nc(N)c3cc(Cc4ccccc4)sc3n2)o1 [Example 18] | nM | 304 |
| Nc1nc(-c2cccnc2)nc2sc(Cc3ccccc3)cc12 [Example 13] | nM | 215 |

[1] Cc1ccc(-c2nc(N)c3cc(/C=C/c4ccccc4)sc3n2)o1 [Example 33]
[2] Cc1nc(-c2nc(N)c3cc(Cc4ccccc4)sc3n2)cs1 [Example 28]
[3] Cc1csc(-c2nc(N)c3cc(C(C)c4ccccc4)sc3n2)n1 (racemic) [Example 17]
Kindly order the items shown according to Ki, from the highest value down. I'd appreciate it if you listed the labels in the requested order.
1, 3, 2

----------
target: human adenosine A1 receptor (Homo sapiens, UniProt P30542); test: Adenosine A1 Receptor Functional Assay (A1GAL2); conditions: CHO-K1 cells, cAMP inducible beta-galactosidase reporter, 4 nM r-PIA/1 uM Forskolin challenge
pKi: −log10 of the molar value.
metric: pKi

| chemical-string | metric | value-measured |
| --- | --- | --- |
| COc1ccccc1Cc1cc2c(N)nc(-c3nc(C)cs3)nc2s1 | pKi | 6.73 |

[a] Cc1nc(-c2nc(N)c3cc(Cc4ccccc4)sc3n2)cs1
[b] N#Cc1ccc(-c2nc(N)c3cc(Cc4ccccc4)sc3n2)o1
[c] Cc1ccc(-c2nc(N)c3cc(/C=C/c4ccc(F)cc4)sc3n2)o1
Write the entries in order, lowest recorded pKi first. I'd appreciate it if you listed the labels in the requested order.
c, b, a

----------
Target: human adenosine A1 receptor (Homo sapiens, UniProt P30542)
Sequence (P30542 1-326): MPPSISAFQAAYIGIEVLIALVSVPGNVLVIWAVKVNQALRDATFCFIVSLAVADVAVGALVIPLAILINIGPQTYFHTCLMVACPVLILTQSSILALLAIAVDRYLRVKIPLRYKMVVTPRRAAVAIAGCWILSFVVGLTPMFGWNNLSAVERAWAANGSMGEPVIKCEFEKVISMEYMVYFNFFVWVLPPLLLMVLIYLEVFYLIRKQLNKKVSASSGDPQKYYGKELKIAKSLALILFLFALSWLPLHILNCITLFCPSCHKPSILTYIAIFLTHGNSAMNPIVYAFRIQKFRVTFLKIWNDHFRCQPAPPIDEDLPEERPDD
Assay: Adenosine A1 Receptor Functional Assay (A1GAL2)
Conditions: CHO-K1 cells, cAMP inducible beta-galactosidase reporter, 4 nM r-PIA/1 uM Forskolin challenge
metric: Ki (µM)

| compound | readout-unit | Ki |
| --- | --- | --- |
| Nc1nc(-c2cccnc2)nc2sc(Cc3ccccc3)cc12 | µM | 1.42 |
| Cc1ccc(-c2nc(N)c3cc(Cc4ccccc4)sc3n2)o1 | µM | 0.279 |

[I] Cc1csc(-c2nc(N)c3cc(C(C)c4ccccc4)sc3n2)n1 (racemic)
[II] Nc1nc(-c2ccc(C(F)F)o2)nc2sc(C(O)c3ccccc3)cc12 (stereo not drawn)
[III] COc1ccccc1Cc1cc2c(N)nc(-c3ccc(C(F)F)o3)nc2s1
Write the entries in order, lowest recorded Ki first. I'd appreciate it if you listed the labels in the requested order.
II, III, I

----------
target: human adenosine A2a receptor (Homo sapiens, UniProt P29274); assay: Adenosine A2a Receptor Functional Assay (A2AGAL2); conditions: CHO-K1 cells, cAMP inducible beta-galactosidase reporter, 15 nM NECA agonist challenge
Sequence (P29274 whole entry): as the sequence (P29274 whole entry) above
Structures can show the parent of a compound that is named as a salt.
metric: Ki (nM)

Check out these entries, answers already filled in.
| compound | value-measured |
| --- | --- |
| Cc1ccc(-c2nc(N)c3cc(C(C)c4ccccc4)sc3n2)o1 (racemic) [Example 16] | 47.8 |
| Cc1ccc(-c2nc(N)c3cc(C(=O)c4cccc(CN5CCOCC5)c4)sc3n2)o1 [Example 5] | 230 |
| CC(c1ccccc1)c1cc2c(N)nc(-c3ncco3)nc2s1 (racemic) [Example 21] | 19.4 |
| Nc1nc(-c2ncccn2)nc2sc(Cc3ccccc3)cc12 [Example 25, hydrochloride] | 17.5 |
| Cc1ccc(-c2nc(N)c3cc(/C=C/c4ccc(F)cc4)sc3n2)o1 [Example 30] | 938 |

[1] COc1ccccc1Cc1cc2c(N)nc(-c3ccc(C(F)F)o3)nc2s1 [Example 39]
[2] Cn1cnc(-c2nc(N)c3cc(Cc4ccccc4)sc3n2)c1 [Example 20]
Of 1 and 2 , which shows the smaller Ki value? Indicate your choice by writing its label.
1
